Attribution: patent US20130164281A1

target: T1, human c-Met/Fc fusion protein (R&D Systems) (human, UniProt P08581 25-932); assay: competition ELISA on coated c-Met/Fc; competitor biotinylated chAbF46 (0.1 ug/ml)
T1 construct: Bought reagent; also called c-Met/Fc chimera (R&D Systems Cat. No. 358-MT/CF); not shown: Fc part of the bought fusion
T1 sequence (P08581 25-932 limits assumed): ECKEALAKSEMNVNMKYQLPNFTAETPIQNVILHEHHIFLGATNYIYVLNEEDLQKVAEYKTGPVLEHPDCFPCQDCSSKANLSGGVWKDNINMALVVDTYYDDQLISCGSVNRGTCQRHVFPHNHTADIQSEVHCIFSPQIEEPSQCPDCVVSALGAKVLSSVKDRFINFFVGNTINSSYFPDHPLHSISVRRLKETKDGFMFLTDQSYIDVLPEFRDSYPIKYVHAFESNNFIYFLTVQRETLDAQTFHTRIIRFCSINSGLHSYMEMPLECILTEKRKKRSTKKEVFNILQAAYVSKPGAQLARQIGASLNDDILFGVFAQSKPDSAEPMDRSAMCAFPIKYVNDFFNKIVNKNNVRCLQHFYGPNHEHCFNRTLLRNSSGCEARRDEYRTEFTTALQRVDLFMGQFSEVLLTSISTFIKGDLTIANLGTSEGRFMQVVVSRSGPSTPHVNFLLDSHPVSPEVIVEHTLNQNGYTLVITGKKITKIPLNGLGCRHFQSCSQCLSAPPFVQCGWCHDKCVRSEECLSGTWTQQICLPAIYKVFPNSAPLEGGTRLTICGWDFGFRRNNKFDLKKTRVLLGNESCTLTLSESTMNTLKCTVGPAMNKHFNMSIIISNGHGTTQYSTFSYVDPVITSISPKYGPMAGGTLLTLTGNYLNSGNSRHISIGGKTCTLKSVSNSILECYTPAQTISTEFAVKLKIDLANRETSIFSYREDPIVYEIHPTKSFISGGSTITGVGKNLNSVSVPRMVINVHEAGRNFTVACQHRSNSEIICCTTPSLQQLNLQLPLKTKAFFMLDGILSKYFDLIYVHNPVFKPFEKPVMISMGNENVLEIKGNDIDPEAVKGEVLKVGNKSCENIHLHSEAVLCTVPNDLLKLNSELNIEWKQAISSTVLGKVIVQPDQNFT
pIC50: −log10 of the molar value.
ENDPOINT_LABEL: pIC50

| BINDER | ENDPOINT_LABEL | QUANTITATIVE_RESULT |
| --- | --- | --- |
| deimmunized humanized antibody huAbF46 including a combination of AT-VH5 and AT-Vk3 (antibody, IgG1, V domains shown, expressed from pANTVhG1 and pANTVk vectors (IgG1, kappa) in HEK293 cells; also called AT-VH5/AT-Vk3) VH: EVQLVESGGGLVQPGGSLRLSCATSGFTFTDYYMSWVRQPPGKGLEWLGFIRNKANGYTTEYSASVKGRFTISRDNSKNTLYLQMNSLRAEDTAVYYCARDNWFAYWGQGTLVTVSS VL: DIQMTQSPSSLSASVGDRVTITCKSSQSLLASGNQNNYLAWHQQKPGKAPKMLIIWASTRVSGVPDRFIGSGSGTDFTLTISSLQAEDVAVYYCQQSYSAPLTFGQGTKLEIK | pIC50 | 8.80 |
| deimmunized humanized antibody huAbF46 including a combination of AT-VH1 and AT-Vk1 (antibody, IgG1, V domains shown, expressed from pANTVhG1 and pANTVk vectors (IgG1, kappa) in HEK293 cells; also called AT-VH1/AT-Vk1) VH: EVKLVESGGGLVQPGGSLRLSCATSGFTFTDYYMSWVRQPPGKGLEWLGFIRNKANGYTTEYSASVKGRFTISRDNSKSTLYLQMNSLRAEDSATYYCARDNWFAYWGQGTLVTVSS VL: DILMTQSPSSLTASVGDRVTMTCKSSQSLLASGNQNNYLAWHQQKPGKAPKMLIIWASTRVSGVPDRFIGSGSGTDFTLTISSLQAEDVAVYYCQQSYSAPLTFGQGTKLEIK | pIC50 | 8.83 |
| deimmunized humanized antibody huAbF46 including a combination of AT-VH1 and AT-Vk4 (antibody, IgG1, V domains shown, expressed from pANTVhG1 and pANTVk vectors (IgG1, kappa) in HEK293 cells; also called AT-VH1/AT-Vk4) VH: EVKLVESGGGLVQPGGSLRLSCATSGFTFTDYYMSWVRQPPGKGLEWLGFIRNKANGYTTEYSASVKGRFTISRDNSKSTLYLQMNSLRAEDSATYYCARDNWFAYWGQGTLVTVSS VL: DIQMTQSPSSLSASVGDRVTITCKSSQSLLASGNQNNYLAWHQQKPGKAPKMLIIWASTRVSGVPDRFSGSGSGTDFTLTISSLQAEDVAVYYCQQSYSAPLTFGQGTKLEIK | pIC50 | 8.82 |
